assayed-system: human thrombin (Homo sapiens, UniProt P00734)
Construct: addition of 20 μ2L human thrombin (5 U/mL, SIGMA, T 1063); purchased SIGMA T 1063
assay-procedure: Assay for thrombin-inhibiting activity (chromogenic substrate FVR-pNa)
Format: biochemical
assay-endpoint: pIC50
In textbook form, pIC50 equals minus log to base ten of the concentration in mol/L.

IN: What does the data say about its pIC50? Entry: "CCS(=O)(=O)N[C@H](Cc1ccc(-c2ccccc2)cc1)C(=O)N[C@@H](CCSC)C(=O)NCc1ccc(C(=N)N)cc1"
OUT: 5.64

###

assayed-system: human thrombin (Homo sapiens)
Construct: addition of 20 μ2L human thrombin (5 U/mL, SIGMA, T 1063); purchased SIGMA T 1063
assay-procedure: Assay for thrombin-inhibiting activity (chromogenic substrate FVR-pNa)
Assay type: biochemical
cond: 50% inhibition of initial reaction velocity, room temperature, absorbance at 405 nm; read-out: IC50 Thrombin
assay-endpoint: pIC50
In textbook form, pIC50 equals minus log to base ten of the concentration in mol/L.

Consider the reported pIC50 for these molecules:
>>> recorded_result("N=C(N)c1ccc(CNC(=O)[C@H](CCC(N)=O)NC(=O)[C@@H](Cc2c[nH]c3ccccc23)NS(=O)(=O)Cc2cccc(C(=O)O)c2)cc1 [Example 7]")
4.75
>>> recorded_result("CCS(=O)(=O)N[C@H](Cc1c[nH]c2ccc(OC)cc12)C(=O)N[C@@H](CCC(N)=O)C(=O)NCc1ccc(C(=N)N)cc1 [Example 148]")
5.08
>>> recorded_result("N=C(N)c1ccc(CNC(=O)[C@H](CCC(N)=O)NC(=O)[C@@H](Cc2c[nH]c3ccccc23)NS(=O)(=O)CC(=O)O)cc1 [Example 146]")
4.10
>>> recorded_result("CCS(=O)(=O)N[C@H](Cc1c[nH]c2ccc(C)cc12)C(=O)N[C@@H](CCC(N)=O)C(=O)NCc1ccc(C(=N)N)cc1 [Example 82]")
4.90

IN: What does the data say about its pIC50? Entry: CCS(=O)(=O)N[C@H](Cc1c[nH]c2ccc(OCc3cccc(C(=O)O)c3)cc12)C(=O)N[C@@H](CCC(N)=O)C(=O)NCc1ccc(C(=N)N)cc1 [Example 22]
OUT: 4.76

IN: What does the data say about its pIC50? Entry: CCCOc1ccc2[nH]cc(C[C@@H](NS(=O)(=O)CC)C(=O)N[C@@H](CCC(N)=O)C(=O)NCc3ccc(C(=N)N)cc3)c2c1 [Example 83]
OUT: 4.84

IN: What does the data say about its pIC50? Entry: CCS(=O)(=O)N[C@H](Cc1c[nH]c2ccc(OCc3ccccc3)cc12)C(=O)N[C@@H](CCC(N)=O)C(=O)NCc1ccc(C(=N)N)cc1 [Example 170]
OUT: 5.03

IN: What does the data say about its pIC50? Entry: CCS(=O)(=O)N[C@H](Cc1ccc(C(=O)c2ccccc2)cc1)C(=O)N[C@@H](CCC(N)=O)C(=O)NCc1ccc(C(=N)N)cc1 [Example 81]
OUT: 5.24
